Data provenance: patent US12492182B2

Biological target: human mPGES-1 (Homo sapiens)
Sequence (O14684 1-152): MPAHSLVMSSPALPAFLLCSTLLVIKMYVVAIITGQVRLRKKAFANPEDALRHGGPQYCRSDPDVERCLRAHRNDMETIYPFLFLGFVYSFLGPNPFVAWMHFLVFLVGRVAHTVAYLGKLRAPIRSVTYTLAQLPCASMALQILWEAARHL
pIC50: −log10 of the molar value.
observationType: pIC50

1. CC1(c2cccc(-c3nc(O)nc(-c4cc(CNC(=O)C5(C(F)F)CCCCCC5)ccc4Cl)n3)c2)CC1; 8.74

A: O=C(NCc1ccc(Cl)c(-c2nc(O)nc(-c3ccc(OC4CCC4)nc3)n2)c1)C1(C(F)(F)F)CCCCC1
B: CC1(c2cccc(-c3nc(O)nc(-c4cc(CNC(=O)C5(CF)CCCC5)ccc4Cl)n3)c2)CC1
# input Param pair: A , B . Output: the one whose pIC50 is numerically greater. Answer format: the label of the selected item.
# output A
